We begin with a simple list: items and their reported solubility thermodynamic.
Run description: Semi thermodynamic solubility
Measurement context: thermodynamic from solid
Parameter measured: solubility thermodynamic (µM)

molecule="COC(=O)C1=C(C)NC(C)=C(C(=O)OCCN(C)Cc2ccccc2)C1c1cccc([N+](=O)[O-])c1 (stereo not drawn) [Nicardipine, reference compound]" parameter_measured="solubility thermodynamic" comparator== assay_value=35.4
molecule=CCCCCC(=O)Nc1ccc2nc(Nc3ccc(Cl)c(Cl)c3)c(Nc3ccc(Cl)c(Cl)c3)nc2c1 parameter_measured="solubility thermodynamic" comparator== assay_value=15.5
molecule="CC(=O)CC(c1ccccc1)c1c(O)c2ccccc2oc1=O (stereo not drawn) [Warfarin, reference compound]" parameter_measured="solubility thermodynamic" comparator=> assay_value=100
molecule=O=[N+]([O-])c1ccc2nc(Nc3ccc(C(F)(F)F)cc3)c(Nc3ccc(C(F)(F)F)cc3)nc2c1 parameter_measured="solubility thermodynamic" comparator== assay_value=32.8
molecule=O=[N+]([O-])c1ccc2nc(Nc3cc(C(F)(F)F)ccc3F)c(Nc3cc(C(F)(F)F)ccc3F)nc2c1 parameter_measured="solubility thermodynamic" comparator== assay_value=6.95
molecule=COc1ccc(Nc2nc3ccc([N+](=O)[O-])cc3nc2Nc2ccc(OC)c(C(F)(F)F)c2)cc1C(F)(F)F parameter_measured="solubility thermodynamic" comparator== assay_value=4.09
